molecular target: SARS-CoV-2 3CL-protease (Severe acute respiratory syndrome coronavirus 2, UniProt P0DTD1); assay: SARS-CoV-2 3C-Like (3CL) Protease Fluorescence Assay (FRET); format: biochemical; conditions: SARS-CoV-2 3CL-protease 10 nM, test compounds 0-10 μM, duplicate, read-out: IC50
endpoint-label: IC50

structure-string: CC(C)(C)C[C@H](NC(=O)[C@H](CC1CC1)NC(=O)C1CCC2(CC1)CC2)C(=O)N1C[C@]2(C[C@H]1C#N)C(=O)Nc1ccccc12
measured-on: SARS-CoV-2 3CL-protease (Severe acute respiratory syndrome coronavirus 2, UniProt P0DTD1)
observed-result: < 0.1 µM

structure-string: CC(C)N1CCc2cc(C(=O)N(C)[C@@H](CC(C)(C)C)C(=O)N3C[C@]4(C[C@H]3C#N)C(=O)Nc3ccccc34)[nH]c2C1
measured-on: SARS-CoV-2 3CL-protease (Severe acute respiratory syndrome coronavirus 2, UniProt P0DTD1)
observed-result: < 0.1 µM

structure-string: CN(C(=O)[C@@H]1C[C@@H]2CCCC[C@@H]2N1C(=O)C(F)(F)F)[C@@H](CC(C)(C)C)C(=O)N1C[C@]2(C[C@H]1C#N)C(=O)Nc1ccccc12
measured-on: SARS-CoV-2 3CL-protease (Severe acute respiratory syndrome coronavirus 2, UniProt P0DTD1)
observed-result: 0.1 to 1 µM

structure-string: [2H]C([2H])([2H])N(C(=O)[C@H](C)NC(=O)C(F)(F)C(F)(F)F)[C@@H](CCCC)C(=O)N1C[C@]2(C[C@H]1C#N)C(=O)Nc1ccccc12
measured-on: SARS-CoV-2 3CL-protease (Severe acute respiratory syndrome coronavirus 2, UniProt P0DTD1)
observed-result: < 0.1 µM

structure-string: CC(C)C[C@@H](C(=O)N1C[C@]2(C[C@H]1C#N)C(=O)Nc1ccccc12)N(C)C(=O)[C@H](C)NC(=O)c1ccc(F)c(-c2ccc(F)cc2)c1
measured-on: SARS-CoV-2 3CL-protease (Severe acute respiratory syndrome coronavirus 2, UniProt P0DTD1)
observed-result: < 0.1 µM

structure-string: CC(C)C[C@@H](C(=O)N1C[C@]2(C[C@H]1C#N)C(=O)Nc1ccccc12)N(C)C(=O)[C@@H]1[C@@H]2C[C@@H]2CN1C1CC1
measured-on: SARS-CoV-2 3CL-protease (Severe acute respiratory syndrome coronavirus 2, UniProt P0DTD1)
observed-result: 0.1 to 1 µM
